Recorded values, source ChEMBL document CHEMBL1201862.

Task for the reader: assign each of the following compounds its reported GI50.
# Test system: U-251
# procedure-text: NCI tumour cell line growth inhibition, 48 h
Active and inactive are the calls of the source. No stated cut-off is given here; in the data, active = GI50 up to about 1.1 µM and inactive = higher.

These solved cases illustrate the format of a correct answer.
1) COc1ccc(C(=O)/C=C/c2ccc3c(c2)OCO3)c(OCc2ccccc2)c1 :: > 57.5 µM (inactive)
2) Oc1c(Cl)c(Cl)c(O)c(CCNc2ccc3ncccc3c2)c1Cl :: 8.87 µM (inactive)
3) NNC(=O)CCC(=O)Nc1cc(Cl)c(Cl)cc1Cl :: > 100 µM (inactive)

Provide reported GI50 for each item, in the same order as listed.
1. C[N+]1(C)CCCC1C(=O)[O-] (stereo not given)
2. CC1CCC2CC(=O)OC([C@@H]3C(=O)O[C@@H](C4=CCCC4)C4C(C)CCC43)C12 (stereo not given in full)
3. O=C1CC(c2cccc([N+](=O)[O-])c2)C2(C(=O)NC(=S)NC2=O)C(c2cccc([N+](=O)[O-])c2)C1 (stereo not given)
4. Cc1ccc(S(=O)(=O)C(CC(=O)N2CCCC2)C(=O)c2ccccc2)cc1 (stereo not given)
5. NC1=C(N2CCOCC2)C(=O)NC2=N/C(=C\c3ccccc3O)C(=O)N21
6. CNC(=O)OCc1nc(SSc2nc(COC(=O)NC)c(COC(=O)NC)n2C)n(C)c1COC(=O)NC
7. CCOC(=O)Cc1nnc2c(-c3ccccc3)nc3ccccc3n12

Result:
1. > 100 µM (inactive)
2. 48.6 µM (inactive)
3. 26.2 µM (inactive)
4. > 100 µM (inactive)
5. > 100 µM (inactive)
6. > 100 µM (inactive)
7. 22.4 µM (inactive)

###

# System: Hs-578T
# procedure-text: NCI tumour cell line growth inhibition, 48 h
The source made the active and inactive calls. Rule as the data show it: active = GI50 up to about 1.1 µM and inactive = higher.
Output constraint: value belongs to active, inactive

1. CN(C)c1ccc2c(SCC(=O)OCC(=O)[C@@]3(O)CC[C@H]4[C@@H]5CCC6=CC(=O)C=C[C@]6(C)[C@H]5C(=O)C[C@@]43C)c3ccc(N(C)C)cc3nc2c1 :: inactive
2. Cn1c(=O)c2ccccc2c2ccccc21 :: inactive

Query: Which outcome did this test record for the molecule CN1C(=O)C(c2c[nH]c3ccccc23)N(C)C(=O)C1c1c[nH]c2ccccc12 (stereo not given) ?
Result: inactive

Query: Can you check CC1=CC(C2/C(=N/O)C=C(C)CC2(C)C)C(O)C(C)(C)C1 (stereo not given) next?
Result: inactive

###

Task for the reader: assign each of the following compounds its reported GI50.
# System: HOP-62
# procedure-text: NCI tumour cell line growth inhibition, 48 h
Active and inactive are the calls of the source. Cut-off read from the data, not from the text of the source: active = GI50 up to about 1.1 µM and inactive = higher.

1. C/C(=N\NC(N)=S)c1ccc2c(c1)OCO2 :: > 100 µM (inactive)
2. CC(C)CCn1nc(N)c2nc3ccccc3nc21 :: > 100 µM (inactive)
3. COC(=O)Cc1ccc2c(cnn2-c2ccccc2)c1OC :: > 10 µM (inactive)
4. O=c1ncccn1C1C=C(CO)C(O)C1O (configuration not stated) :: > 50 µM (inactive)

Provide reported GI50 for each item, in the same order as listed.
1. O=C1C(O)=C(CCCCCCCCC2CCCCC2)C(=O)c2ccccc21
2. O=C1/C(=C/c2ccccc2[N+](=O)[O-])N=C(c2ccccc2)N1c1nc2ccccc2s1
3. CC[C@]12C=CCN3CC[C@@]4(c5cc(N=O)c(OC)cc5N(C)[C@H]4[C@@](O)(C(=O)NC(Cc4c[nH]c5ccccc45)C(=O)OC)[C@@H]1O)[C@@H]32 (some centres not stated)
4. Cc1cc2c(cc1Cl)SC(NN(C)C)=NS2(=O)=O
5. O=C(N/N=C/c1ccc(Cl)cc1)c1cc(I)cc(I)c1O
6. N#CC(/N=N/c1ccccc1C(=O)O)C(N)=O (configuration not stated)
7. O=C(c1c(O)cc(O)cc1O)C1Cc2ccccc21 (configuration not stated)
8. COc1ccc(-c2cc(=O)c3ccc(O)cc3o2)c(OC)c1OC

Result:
1. 11.6 µM (inactive)
2. 27.1 µM (inactive)
3. 18.2 µM (inactive)
4. > 10 µM (inactive)
5. > 100 µM (inactive)
6. > 100 µM (inactive)
7. 45.2 µM (inactive)
8. 92.3 µM (inactive)

Provide reported GI50 for each item, in the same order as listed.
1. COc1ccc(OC)c2cc(Cc3ccc(N(C)C)cc3)c(=O)c(Cc3ccc(N(C)C)cc3)cc12
2. COc1ccc(NC(=S)Nc2cc(C)ccn2)cc1

Result:
["58.6 µM (inactive)", "> 100 µM (inactive)"]

Provide reported GI50 for each item, in the same order as listed.
1. CC(=O)c1c2c(cc3c1CC1(C3)Cc3cc4c(c(C(C)=O)c3C1)CCC4)CCC2
2. CCCCOC(=O)CNC(=O)OCCCCC#CC#CCCCCOC(=O)NCC(=O)OCCCC

Result:
> 100 µM (inactive)
> 100 µM (inactive)

Provide reported GI50 for each item, in the same order as listed.
1. Nc1ncnc2sc(Nc3ccccc3)nc12
2. N#CCCN(CCC#N)c1ccc(C(/N=N/c2ccc(Cl)cc2)=N\c2ccccc2)cc1
3. COc1nc(NC2OC(COC(C)=O)C(OC(C)=O)C(OC(C)=O)C2OC(C)=O)c(/N=C(\C)C(C)=O)c(=O)n1C (configuration not stated)

Result:
1: 81.7 µM (inactive); 2: 13.2 µM (inactive); 3: > 100 µM (inactive)

Provide reported GI50 for each item, in the same order as listed.
1. C=C1CN(Cc2ccccc2)[C@@H]2CCCCC[C@H](C#N)[C@H]12
2. N/C(=N\N=C\c1nc2ccccc2o1)c1cnccn1
3. COc1ccc(N2CCOCC2)cc1

Result:
1. > 69.2 µM (inactive)
2. 43.2 µM (inactive)
3. > 100 µM (inactive)
